The measured values listed here are drawn from the supplement of paper PMC11451515.

Measured cell viability, listed per entry.
System: SEM cells
assay text: cell viability relative to DMSO control; higher = less cytotoxic
run parameters: HPLM + 10% dialyzed FBS; 48 h; 0.0632 µM
value kind: cell viability (%)

* CCCNC(=O)Nc1ccc(Oc2ncnc3cc(OC)c(OC)cc23)cc1Cl | 102
* CCOC(=O)C(C)OC1=CC=CC2=C1\C=C/N(CC(=O)NC3=CC=C4OCCOC4=C3)C2=O (configuration not stated) | 102
* O=C(CCCN1CCN(c2ccc(F)cc2)CC1)NC1c2ccccc2CSc2ccccc21 (configuration not stated) | 131
* CCCCN(CCCC)CC(O)c1cc(Cl)cc2c1-c1ccc(Cl)cc1/C2=C/c1ccc(Cl)cc1 (configuration not stated) | 99
* CC#CCn1c(N2CCC[C@@H](N)C2)nc2c1c(=O)n(Cc1nc(C)c3ccccc3n1)c(=O)n2C | 115
* Cc1ccc([S+](=O)([O-])OCC(=O)Nc2ccc(C(=O)O)c(O)c2)cc1 | 125
* COc1cc[nH]c2ncc(C(=O)C(=O)N3CCN(C(=O)c4ccccc4)C[C@H]3C)c1-2 | 58.5
* COc1ccc2c(c1)CN(C)CC2c1ccc(Cl)c(Cl)c1 (configuration not stated) | 122
* CC(C)OC(=O)[C@H](C)N[P@](=O)(OC[C@H]1O[C@@H](N2\C=C/C(=O)NC2=O)[C@](C)(F)[C@@H]1O)OC3=CC=CC=C3 | 99.4
* COc1ccc2c(c1)[C@]13CCCCC1C(C2)N(C)CC3 (some centres not stated) | 116
* Nc1c2c(nc3ccccc13)CCCC2 | 115
* Cc1ccccc1C(=O)Nc1ccc(C(=O)N2CCCC(O)c3cc(Cl)ccc32)c(C)c1 (configuration not stated) | 113
* C[C@]12CC[C@H]3[C@@H](CCC4=CC(=O)CC[C@@H]43)[C@@H]1CC[C@@H]2OC(=O)CCc1ccccc1 | 100
* CC(C(=O)O)c1ccc2c(c1)CC(=O)c1ccccc1S2 (configuration not stated) | 94.3
* CCCN1CCO[C@@H]2c3cc(O)ccc3OC[C@H]21 | 122
* COC1=CC=C(C(=C1)OC(C)C)C/2=N/[C@@H]([C@@H](N2C(=O)N3CCNC(=O)C3)C4=CC=C(Cl)C=C4)C5=CC=C(Cl)C=C5 | 87.1
* CC(=O)Oc1ccccc1C(=O)Nc1ncc([N+](=O)[O-])s1 | 84.3

###

Tested on: P12-Ichikawa
assay text: cell viability relative to DMSO control; higher = less cytotoxic
run parameters: RPMI 5 mM glucose + 10% dialyzed FBS; 48 h; 46.1 µM
Parameter: cell viability. Scope: all listed entries.
value kind: cell viability (%)

• NC(=O)c1ccc(N(C(N)=O)c2c(F)cccc2F)nc1-c1ccc(F)cc1F = 88.6
• CCCCOCCOc1nc(-c2ccc(C(=O)O)c(F)c2)sc1C = 113
• Nc1c2c(nc3ccccc13)CCCC2 = 79.1
• Cc1cccc(Nc2ccncc2[S+](=O)([O-])NC(=O)NC(C)C)c1 = 76.1
• COc1cccc2c1C(=O)c1c(O)c3c(c(O)c1C2=O)C[C@@](O)(C(=O)CO)C[C@@H]3O[C@H]1C[C@H](N)[C@H](O)[C@H](C)O1 = 13
• CC(C)c1cc(C(C)C)c(CC(=O)N[S+](=O)([O-])Oc2c(C(C)C)cccc2C(C)C)c(C(C)C)c1 = 87
• CC#CCn1c(N2CCC[C@@H](N)C2)nc2c1c(=O)n(Cc1nc(C)c3ccccc3n1)c(=O)n2C = 85.9
• CC[C@@H]([C@H](C)O)n1ncn(-c2ccc(N3CCN(c4ccc(OCC5CO[C@@](Cn6cncn6)(c6ccc(F)cc6F)C5)cc4)CC3)cc2)c1=O (stereo partly drawn) = 75
• COC1=CC=C(C(=C1)OC(C)C)C/2=N/[C@@H]([C@@H](N2C(=O)N3CCNC(=O)C3)C4=CC=C(Cl)C=C4)C5=CC=C(Cl)C=C5 = 27.8
• Nc1ncnc2c1ncn2[C@@H]1O[C@H](CO)C[C@H]1O = 92.3
• COc1cc2c(cc1OC)CN(CCc1ccc(NC(=O)c3cc(OC)c(OC)cc3NC(=O)c3cnc4ccccc4c3)cc1)CC2 = 46.5
• CCCCCCCCCCCCCC(=O)N[C@H](CO)[C@H](O)c1ccc([N+](=O)[O-])cc1 = 2.4
• Cc1coc2c1C(=O)C(=O)c1c-2ccc2c1CCCC2(C)C = 92.2

###

Test system: SEM cells
assay text: cell viability relative to DMSO control; higher = less cytotoxic
run parameters: RPMI 5 mM glucose + 10% dialyzed FBS; 48 h; 0.000781 µM
Reported cell viability values follow for various molecules
value kind: cell viability (%)

- COc1ccc2c(c1)[C@]13CCCCC1C(C2)N(C)CC3 (stereo partly specified): 101
- Oc1nc(-c2ccc(C(F)(F)F)cc2)nc2c1CSCC2: 97.9
- CN(C)CC(C)(C)CNc1nn2c(-c3ccccc3)nnc2cc1C1CCC1: 68.1
- CCCNC(=O)Nc1ccc(Oc2ncnc3cc(OC)c(OC)cc23)cc1Cl: 94
- OCC(O)C(O)C(O)CO (stereo unspecified): 103
- CN1CCCN(CC1)C2=CC=C3C(=O)\C(=C/4SC5=C(C=CC=C5)N4C3=N2)C(=O)NCC6=CN=C(C)C=N6: 89.6
- CCCCOc1c(C(=O)c2c(F)cc(C)cc2F)cnc2[nH]ncc12: 93.2
- CC[C@H]1OC(=O)[C@H](C)C(=O)[C@H](C)[C@@H](O[C@H]2O[C@H](C)C[C@H](N(C)C)[C@H]2O)[C@](C)(OC)C[C@@H](C)C(=O)[C@H](C)[C@H]2N(CCCCn3cnc(-c4cccnc4)c3)C(=O)O[C@]12C: 110
- CC(C(=O)O)c1ccc2c(c1)CC(=O)c1ccccc1S2 (stereo unspecified): 122
- NC[C@H]1O[C@H](O[C@@H]2[C@H](O)[C@@H](O[C@H]3O[C@H](CO)[C@@H](O)[C@H](N)[C@H]3O)[C@H](N)C[C@@H]2N)[C@H](O)[C@@H](O)[C@@H]1O: 115
- CCCCCNC(=O)N1CCC(CN(Cc2ccc(Cl)cc2)Cc2ccc([N+](=O)[O-])s2)C1 (stereo unspecified): 113
- COC1=C(OCCCN2CCOCC2)C=CC\3=C1/N=C(/NC(=O)C4=CN=C(N)N=C4)N5CC/N=C35: 89.3
- NC(=O)c1ccc(N(C(N)=O)c2c(F)cccc2F)nc1-c1ccc(F)cc1F: 87.6
- CN1CC(=O)N2[C@H](c3ccc4c(c3)OCO4)c3[nH]c4ccccc4c3C[C@@H]2C1=O: 94
- Cc1coc2c1C(=O)C(=O)c1c-2ccc2c1CCCC2(C)C: 96.7
- CC(C)c1cc(C(C)C)c(CC(=O)N[S+](=O)([O-])Oc2c(C(C)C)cccc2C(C)C)c(C(C)C)c1: 90.5

###

Test system: SEM cells
assay text: cell viability relative to DMSO control; higher = less cytotoxic
run parameters: RPMI 5 mM glucose + 10% FBS; 48 h; 46.1 µM
value kind: cell viability (%)

* Nc1c2c(nc3ccccc13)CCCC2 | 80.5
* CC[C@@H]([C@H](C)O)n1ncn(-c2ccc(N3CCN(c4ccc(OCC5CO[C@@](Cn6cncn6)(c6ccc(F)cc6F)C5)cc4)CC3)cc2)c1=O (some centres undefined) | 78.2
* CCOC(=O)C(C)OC1=CC=CC2=C1\C=C/N(CC(=O)NC3=CC=C4OCCOC4=C3)C2=O (centres undefined) | 92.6
* CN1CC(=O)N2[C@H](c3ccc4c(c3)OCO4)c3[nH]c4ccccc4c3C[C@@H]2C1=O | 83.5

###

Catalogue of cell viability readings, one per entry.
Test system: SEM cells
assay text: cell viability relative to DMSO control; higher = less cytotoxic
run parameters: RPMI 5 mM glucose + 10% dialyzed FBS; 48 h; 1.71 µM
value kind: cell viability (%)

- Cc1csc(-c2nnc(Nc3ccc(Oc4ncccc4-c4ccnc(N)n4)cc3)c3ccccc23)c1: 29.1
- Oc1nc(-c2ccc(C(F)(F)F)cc2)nc2c1CSCC2: 98.3
- N[C@@H]1CONC1=O: 93.7
- CC[C@H]1OC(=O)[C@H](C)C(=O)[C@H](C)[C@@H](O[C@H]2O[C@H](C)C[C@H](N(C)C)[C@H]2O)[C@](C)(OC)C[C@@H](C)C(=O)[C@H](C)[C@H]2N(CCCCn3cnc(-c4cccnc4)c3)C(=O)O[C@]12C: 119
- O=P(O)(O)C(O)(Cn1ccnc1)P(=O)(O)O: 117
- COC1=C(OCCCN2CCOCC2)C=CC\3=C1/N=C(/NC(=O)C4=CN=C(N)N=C4)N5CC/N=C35: 59.3
- CC12CC3CC(C)(C1)CC(N)(C3)C2: 103

###

System: P12-Ichikawa
assay text: cell viability relative to DMSO control; higher = less cytotoxic
run parameters: HPLM + 10% dialyzed FBS; 48 h; 5.12 µM
value kind: cell viability

- CCCCOCCOc1nc(-c2ccc(C(=O)O)c(F)c2)sc1C: 107%
- CC(C)(O)CC(=O)NCCn1ccc2ncnc(Nc3ccc(Oc4cccc(C(F)(F)F)c4)c(Cl)c3)c21: 87.2%
- COc1c(C)c2c(c(O)c1C/C=C(\C)CCC(=O)O)C(=O)OC2: 90.5%
- Oc1nc(-c2ccc(C(F)(F)F)cc2)nc2c1CSCC2: 100%
- C[C@@H](CN1CC(=O)NC(=O)C1)N1CC(=O)NC(=O)C1: 13.7%
- CC#CCn1c(N2CCC[C@@H](N)C2)nc2c1c(=O)n(Cc1nc(C)c3ccccc3n1)c(=O)n2C: 103%
